Cited source: ChEMBL document CHEMBL1961873

Target: MAP/microtubule affinity-regulating kinase 4 (Homo sapiens);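 note: reported value is a mean MARK4 inhibition at 1 µM, taken from the GSK PKIS screening set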
Conditions: at 1 µM
Consider the following compounds and their measured inhibition readings.
The response must be a number in % with no trailing unit.

# COMPOUND, MEASURED_ATTRIBUTE, ASSAY_RESULT
data = [
    ("CNC(=O)c1ncccc1Nc1nc(Nc2cc3c(cc2OC)CCCN3C(=O)CN(C)C)nc2[nH]ccc12", "inhibition", 4.01),
    ("NS(=O)(=O)c1cccc(N/C=C2\\C(=O)Nc3ccccc32)c1", "inhibition", 15.5),
    ("CN(c1ccc(NC(=O)NCCN2CCOCC2)cc1)c1ccnc(Nc2ccc(CS(C)(=O)=O)cc2)n1", "inhibition", 5.47),
    ("Cc1cc(O)cc(C)c1/C=C/c1cncc(C(=O)OC(C)(C)C)c1", "inhibition", 0.19),
    ("CS(=O)(=O)Nc1ccc(-c2ccc3c(NC(=O)C4CC4)n[nH]c3c2)cc1", "inhibition", 2.82),
]

Query :: What inhibition value was documented for this compound, COc1cc(N2CCN(C(C)C)CC2)ccc1Nc1nc(Nc2cccc3ncccc23)c2cc[nH]c2n1 ?
Result :: 1.44

Query :: Return reported inhibition; argument: CS(=O)(=O)Nc1ccc(-c2cc(-c3ccccc3)cc(C(N)=O)c2N)cc1
Result :: 0.98

Query :: Any idea what inhibition was measured for Cc1ccc(-c2cc3c(NC(=O)C4CC4)ncnc3o2)cc1 ?
Result :: 3.33

Query :: Consider the compound shown here: O=C(Nc1n[nH]c2nnc(-c3cccnc3)cc12)C1CC1 What is its recorded inhibition?
Result :: 0.56

Query :: Requested read-out: inhibition. Entry: CC1=C(C(=O)Nc2ccc3[nH]nc(C)c3c2)C(c2ccc(C(F)(F)F)cc2)CC(=O)N1 (stereo not given)
Result :: 3.18

Query :: Reported inhibition, compound CS(=O)(=O)CCNCc1ccoc1-c1ccc2ncnc(Nc3ccc(OCc4ccccc4)cc3)c2c1 : ____
Result :: -0.4

Query :: Endpoint output: inhibition of NC(=O)c1ccc2c(-c3ccnc(NCCCO)n3)c(-c3ccc(F)cc3)nn2c1 . Value?
Result :: 2.67

Query :: Sample CNC(=O)c1sc(-n2cnc3cc(OC)c(OC)cc32)cc1OCc1ccccc1C(F)(F)F — what was its inhibition?
Result :: 3.13

Query :: Name the reported inhibition value associated with the compound CS(=O)(=O)CCNCc1ccc(-c2ccc3ncnc(Nc4ccc(OCc5cccc(C(F)(F)F)c5)cc4)c3c2)o1
Result :: 2.54

Query :: Value lookup for inhibition; key = COc1cc(N2CCN(C(C)C)CC2)ccc1Nc1nc(Nc2cccc(F)c2C(=O)O)c2cc[nH]c2n1
Result :: 5.09

Query :: Entry O=C(O[C@H]1CN[C@H](C#Cc2cc3ncnc(Nc4ccc5c(cnn5Cc5ccccc5)c4)c3s2)C1)N1CCOCC1 has what inhibition?
Result :: 2.44

Query :: Recorded inhibition for N#Cc1cccc(Nc2ncc(-c3ccccc3)o2)c1 , please?
Result :: 1.81

Query :: Field request: inhibition | item: O=C1Nc2ccccc2/C1=C1\CCc2cc(O)ccc21
Result :: 33.1

Query :: Looking for the measured inhibition of OCCCNc1nccc(-c2c(-c3ccc(F)cc3)nn3cc(C(F)(F)F)ccc23)n1 , can you help?
Result :: 2.09

Query :: inhibition lookup needed for c1ccc(-c2n[nH]cc2-c2ccnc(-c3ccc(OCCn4ccnc4)cc3)c2)nc1 , thanks.
Result :: 3.83
